- MEASURED_ON: HKU1-3CL^pro (Human coronavirus HKU1 (isolate N1) (HCoV-HKU1), UniProt P0C6X2)
- Sequence (P0C6X2 3335-3637 limits assumed): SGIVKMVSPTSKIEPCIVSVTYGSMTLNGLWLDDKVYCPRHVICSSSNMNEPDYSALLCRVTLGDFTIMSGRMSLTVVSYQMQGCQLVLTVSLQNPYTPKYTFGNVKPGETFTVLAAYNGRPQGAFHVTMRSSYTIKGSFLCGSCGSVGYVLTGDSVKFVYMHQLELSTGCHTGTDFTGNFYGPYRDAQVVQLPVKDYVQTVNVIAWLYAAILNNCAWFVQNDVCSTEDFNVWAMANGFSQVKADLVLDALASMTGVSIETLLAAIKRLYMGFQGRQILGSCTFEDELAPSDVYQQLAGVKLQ
- PROTOCOL: biochemical
Consider the following molecules; for each one, report its IC50.
Numbers only, in µM.

Below are worked cases with known answers.
COc1cccc(C(C(=O)NCc2ccccc2)N(C(=O)Cn2nnc3ccccc32)c2ccc(NC(=O)C(C)C)cc2)c1 (stereo not drawn) | 1.8
O=C(Nc1ccc(N(C(=O)Cn2nnc3ccccc32)C(C(=O)NC2CC2)c2ccsc2)cc1)C1CC1 (stereo not drawn) | 9.8

*Q* Param readout = IC50; param system = HKU1-3CL^pro (Human coronavirus HKU1 (isolate N1) (HCoV-HKU1), UniProt P0C6X2); param query = CC(C)(C)c1ccc(N(C(=O)c2c[nH]cn2)C(C(=O)NCc2ccccc2)c2cccnc2)cc1 (stereo not drawn) ; response: value
*A* 8

* * *

Consider the following compounds; for each one, report its IC50.
- MEASURED_ON: HKU1-3CL^pro (Human coronavirus HKU1 (isolate N1) (HCoV-HKU1), UniProt P0C6X2)
- PROTOCOL: biochemical
One number for each entry, in µM.

Below are worked cases with known answers.
CC(C)(C)CNC(=O)C(c1cccnc1)N(C(=O)c1c[nH]cn1)c1ccc(C(C)(C)C)cc1 (stereo not drawn) | 9
O=C(Nc1ccc(N(C(=O)Cn2nnc3ccccc32)C(C(=O)NCc2cccnc2)c2ccsc2)cc1)C1CC1 (stereo not drawn) | 7.4
CC(C)C(=O)Nc1ccc(N(C(=O)Cn2nnc3ccccc32)C(C(=O)NCc2ccccc2)c2ccc(OCCCN(C)C)cc2)cc1 (stereo not drawn) | 20
CC(C)Cc1ccc(N(C(=O)c2c[nH]cn2)C(C(=O)NC(C)(C)C)c2cccnc2)cc1 (stereo not drawn) | 15.4
COc1ccc(C(C(=O)NCc2ccccc2)N(C(=O)Cn2nnc3ccccc32)c2ccc(NC(=O)C(C)C)cc2)cc1 (stereo not drawn) | 2.5

Please give IC50, item by item, for the list that follows.
1. CC(C)C(=O)Nc1ccc(N(C(=O)Cn2nnc3ccccc32)C(C(=O)NCc2cccnc2)c2cccc(F)c2)cc1 (stereo not drawn)
2. CC(C)(C)c1ccc(N(C(=O)c2c[nH]cn2)C(C(=O)NC2CC2)c2cccnc2)cc1 (stereo not drawn)

*A*
6.8
7.8

Please give IC50, item by item, for the list that follows.
1. CC(C)(C)NC(=O)C(c1cccnc1)N(C(=O)c1c[nH]cn1)c1ccc(C2CCC2)cc1 (stereo not drawn)
2. CC(C)(C)c1ccc(N(C(=O)c2c[nH]cn2)C(C(=O)NC2CCCC2)c2cccnc2)cc1 (stereo not drawn)
3. CC(C)CNC(=O)C(c1cccnc1)N(C(=O)c1c[nH]cn1)c1ccc(C(C)(C)C)cc1 (stereo not drawn)
4. CC(C)(C)OC(=O)CNC(=O)C(c1ccsc1)N(C(=O)Cn1nnc2ccccc21)c1ccc(NC(=O)C2CC2)cc1 (stereo not drawn)

*A*
1: 6.6; 2: 3.4; 3: 5.8; 4: 6.5

Please give IC50, item by item, for the list that follows.
1. CC(C)(C)NC(=O)C(c1cccnc1)N(C(=O)c1c[nH]cn1)c1ccc(C2CCCC2)cc1 (stereo not drawn)
2. CC(C)(C)NC(=O)C(c1cccnc1)N(C(=O)c1c[nH]cn1)c1ccc(C2CCCCC2)cc1 (stereo not drawn)
3. CC(C)C(=O)Nc1ccc(N(C(=O)Cn2cnc3ccccc32)C(C(=O)NCc2ccccc2)c2cccc(F)c2)cc1 (stereo not drawn)
4. CC(C)(C)NC(=O)C(c1cccnc1)N(C(=O)c1c[nH]cn1)c1ccc(C2CC2)cc1 (stereo not drawn)

*A*
5
11.6
3.7
2
